test system: Ewing's sarcoma (TC106); test: In vitro cytotoxicity assay, Ewing's sarcoma cells; type: cell-based; conditions: Homo sapiens, 72 hours exposure, 0 to 100 μM, read-out: ED50 (half-maximal effective dose), cytotoxicity
reported.endpoint: EC50 (µM)

# molecular.string, measure.unit, obs.value
measured = [
    ("O=C1c2cccc(O)c2C(=O)c2c(O)cc(CO)cc21", "µM", 13),
]

----------
system: acute lymphocytic leukemia lines (CEM, CEM VBL); experiment: In vitro cytotoxicity assay, leukemia lines; format: cell-based; details: Homo sapiens, 72 hours exposure, 0 to 100 μM, read-out: ED50 (half-maximal effective dose), cytotoxicity
pEC50: −log10 of the molar value.
reported.endpoint: pEC50

# molecular.string, obs.value
rows = [
    ("O=C1c2cccc(O)c2C(=O)c2c(O)cc(CO)cc21", 4.00),
]
